# TARGET UNDER TEST: UniProtKB P13631
# Sequence (whole entry): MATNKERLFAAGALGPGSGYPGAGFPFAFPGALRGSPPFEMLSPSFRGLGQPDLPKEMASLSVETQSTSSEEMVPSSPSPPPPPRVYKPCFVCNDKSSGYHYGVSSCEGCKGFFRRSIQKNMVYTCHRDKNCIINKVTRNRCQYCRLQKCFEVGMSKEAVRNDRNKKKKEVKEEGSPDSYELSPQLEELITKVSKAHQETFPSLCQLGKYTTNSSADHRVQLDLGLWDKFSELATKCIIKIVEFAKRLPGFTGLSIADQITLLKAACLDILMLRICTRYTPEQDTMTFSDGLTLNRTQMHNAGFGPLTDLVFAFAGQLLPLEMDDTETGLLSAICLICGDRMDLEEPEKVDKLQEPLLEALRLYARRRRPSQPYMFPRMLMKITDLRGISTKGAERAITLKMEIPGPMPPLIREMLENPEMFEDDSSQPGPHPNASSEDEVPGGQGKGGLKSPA
# ASSAY OVERVIEW: Activity at RARgamma expressed in mouse NIH3T3 cells by R-SAT assay relative to Am-580
# Assay type: cell-based
Each entry below lists one item and its recorded Efficacy value.
MEASURED PARAMETER: Efficacy

CCCCOCCOc1nc(-c2ccc(C(=O)O)c(F)c2)sc1C: 48%
CCCCCCCCc1ccc(-c2ccc(C(=O)O)c(F)c2)cc1: 84%
CCCCCCNC(=O)COc1nc(-c2ccc(C(=O)O)cc2)sc1C: 63%
CC1(C)CCC(C)(C)c2cc(C(=O)Nc3ccc(C(=O)O)cc3)ccc21: 99%

----------
Each entry below lists one item and its recorded Efficacy value.
# TARGET UNDER TEST: UniProt P10826
# ASSAY OVERVIEW: Agonist activity at RARbeta2 expressed in mouse NIH3T3 cells by R-SAT assay relative to Am-580
# Format: functional, cell-based
MEASURED PARAMETER: Efficacy

CCCCCCCOc1ccc(-c2ccc(C(=O)O)cc2)cc1: 62%
CCCOCCOc1nc(-c2ccc(C(=O)O)cc2)sc1C: 100%
CCCCOCCOc1nc(-c2ccc(C(=O)O)c(F)c2)sc1C: 106%
CCCCOCCOc1cc(C)c(-c2ccc(C(=O)O)cc2)cc1C: 41%
CCCCCCCCc1ccc(-c2ccc(C(=O)O)cc2C)cc1: 37%
CCCCCCCCc1ccc(-c2ccc(C(=O)O)c(C)c2)cc1: 84%

----------
# ASSAY OVERVIEW: Lipophilicity, Log P of the compound
# Format: physicochemical
# MEASUREMENT SETUP: octanol/water
MEASURED PARAMETER: logP

CCCCCCCCc1ccc(-c2ccc(C(=O)O)cc2)cc1: 7.9

----------
# TARGET UNDER TEST: Retinoic acid receptor beta (Homo sapiens)
# Sequence (P10826 whole entry): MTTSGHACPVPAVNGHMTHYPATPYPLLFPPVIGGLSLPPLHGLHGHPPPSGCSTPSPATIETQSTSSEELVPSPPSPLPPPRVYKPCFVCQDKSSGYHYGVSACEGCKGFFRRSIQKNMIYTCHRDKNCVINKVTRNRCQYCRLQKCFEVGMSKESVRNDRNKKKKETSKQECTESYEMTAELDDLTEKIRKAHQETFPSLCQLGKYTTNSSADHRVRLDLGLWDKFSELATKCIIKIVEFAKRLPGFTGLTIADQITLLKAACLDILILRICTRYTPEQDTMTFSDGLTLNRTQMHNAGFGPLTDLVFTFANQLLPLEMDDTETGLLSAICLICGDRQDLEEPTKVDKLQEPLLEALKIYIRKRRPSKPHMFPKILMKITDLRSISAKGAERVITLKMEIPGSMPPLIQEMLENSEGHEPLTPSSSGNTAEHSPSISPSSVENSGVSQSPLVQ
# ASSAY OVERVIEW: Agonist activity at RARbeta2 expressed in mouse NIH3T3 cells by R-SAT assay
# Format: functional, cell-based
Each entry below lists one item and its recorded EC50 value.
MEASURED PARAMETER: EC50 (nM)

CCOCCOc1nc(-c2ccc(C(=O)O)cc2)sc1C: 63.1
CCCCOCCOc1cc(C)c(-c2ccc(C(=O)O)cc2)cc1C: 251
CCCCCCCc1ccc(-c2ccc(C(=O)O)c(F)c2)cc1: 126
CCCCCCCCc1ccc(-c2ccc(C(=O)O)cc2C)cc1: 100
CCCCCCCOc1ccc(-c2ccc(C(=O)O)cc2)cc1: 63.1
CCCCOCCOc1ccc(-c2ccc(C(=O)O)cc2)cc1: 63.1
CCCCCCCCc1ccc(-c2ccc(C(=O)O)c(F)c2)cc1: 39.8
CCCCCCCc1cnc(-c2ccc(C(=O)O)cc2)nc1: 1000
CCCCOCCOc1nc(-c2ccc(C(=O)O)cc2)sc1C: 79.4
CCCCCCNC(=O)COc1nc(-c2ccc(C(=O)O)cc2)sc1C: 39.8

----------
# TARGET UNDER TEST: Retinoic acid receptor alpha (Homo sapiens)
# Sequence (P10276 whole entry): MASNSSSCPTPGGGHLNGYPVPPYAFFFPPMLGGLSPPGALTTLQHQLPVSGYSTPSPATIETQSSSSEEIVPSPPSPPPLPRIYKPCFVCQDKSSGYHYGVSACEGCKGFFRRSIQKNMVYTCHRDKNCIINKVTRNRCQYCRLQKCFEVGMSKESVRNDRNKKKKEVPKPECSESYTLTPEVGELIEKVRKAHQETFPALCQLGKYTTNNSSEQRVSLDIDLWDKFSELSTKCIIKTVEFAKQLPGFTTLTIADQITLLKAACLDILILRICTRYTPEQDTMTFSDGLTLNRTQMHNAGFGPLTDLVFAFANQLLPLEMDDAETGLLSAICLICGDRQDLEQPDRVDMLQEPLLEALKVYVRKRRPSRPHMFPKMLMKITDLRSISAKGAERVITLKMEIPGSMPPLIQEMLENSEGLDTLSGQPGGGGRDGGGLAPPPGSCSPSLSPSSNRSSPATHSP
# ASSAY OVERVIEW: Activity at RARalpha expressed in mouse NIH3T3 cells by R-SAT assay
pEC50: −log10 of the molar value.
MEASURED PARAMETER: pEC50

CCCCCCCCc1ccc(-c2ccc(C(=O)O)cc2)cc1: 5.60
CCCCOCCOc1nc(-c2ccc(C(=O)O)c(F)c2)sc1C: 6.20
CCCCCCCCc1ccc(-c2ccc(C(=O)O)c(F)c2)cc1: 5.70
CCCCOCCOc1ccc(-c2ccc(C(=O)O)c(F)c2)cc1: 5.80

----------
# TARGET UNDER TEST: UniProt P13631
# Sequence (whole entry): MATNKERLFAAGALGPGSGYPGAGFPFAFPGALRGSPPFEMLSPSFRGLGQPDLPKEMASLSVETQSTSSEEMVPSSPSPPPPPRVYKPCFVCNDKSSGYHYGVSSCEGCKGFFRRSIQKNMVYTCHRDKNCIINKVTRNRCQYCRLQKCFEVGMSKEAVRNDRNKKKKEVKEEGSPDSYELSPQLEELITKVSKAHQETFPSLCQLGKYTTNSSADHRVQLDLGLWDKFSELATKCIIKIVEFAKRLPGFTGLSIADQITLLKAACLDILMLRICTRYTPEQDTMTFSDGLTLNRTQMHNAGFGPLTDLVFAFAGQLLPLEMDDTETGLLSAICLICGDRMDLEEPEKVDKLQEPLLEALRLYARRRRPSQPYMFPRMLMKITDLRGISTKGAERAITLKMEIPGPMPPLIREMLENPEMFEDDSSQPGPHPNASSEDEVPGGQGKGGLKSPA
# ASSAY OVERVIEW: Activity at RARgamma expressed in mouse NIH3T3 cells at <10 uM by R-SAT assay relative to Am-580
# Format: cell-based
MEASURED PARAMETER: Efficacy (%)

CCCCOCCOc1nc(-c2ccc(C(=O)O)cc2)sc1C: 54
CC(C)CCCCOc1ccc(-c2ccc(C(=O)O)cc2)cc1: 31
CCCCOCCOc1ccc(-c2ccc(C(=O)O)c(F)c2)cc1: 37
CCCCCCCCc1ccc(-c2ccc(C(=O)O)cc2)cc1: 31

----------
# TARGET UNDER TEST: UniProtKB P10826
# ASSAY OVERVIEW: Activity at RARbeta1 expressed in mouse NIH3T3 cells by R-SAT assay relative to Am-580
# Assay type: cell-based
Each entry below lists one item and its recorded Efficacy value.
MEASURED PARAMETER: Efficacy (%)

CCCCCCCc1ccc(-c2ccc(C(=O)O)cc2)cc1: 230
CCCCOCCOc1nc(-c2ccc(C(=O)O)cc2)sc1C: 45
CCCCCCCCc1ccc(-c2ccc(C(=O)O)c(F)c2)cc1: 54
CCCCCCCCc1ccc(-c2ccc(C(=O)O)cc2)cc1: 29
CCCCOCCOc1nc(-c2ccc(C(=O)O)c(F)c2)sc1C: 52
CCCCCCCCOc1ccc(-c2ccc(C(=O)O)cc2)cc1: 49

----------
Each entry below lists one item and its recorded Efficacy value.
# TARGET UNDER TEST: Retinoic acid receptor beta (Homo sapiens)
# ASSAY OVERVIEW: Agonist activity at RARbeta2 expressed in mouse NIH3T3 cells by R-SAT assay relative to Am-580
# Type: functional, cell-based
MEASURED PARAMETER: Efficacy (%)

CCOCCOc1nc(-c2ccc(C(=O)O)cc2)sc1C: 78
CCCCCCCc1ccc(-c2ccc(C(=O)O)c(F)c2)cc1: 50
CCCCOCCOc1nc(-c2ccc(C(=O)O)cc2)sc1C: 99
CCCCCCOc1ccc(-c2ccc(C(=O)O)cc2)cc1: 72
CCCCOCCOc1ccc(-c2ccc(C(=O)O)cc2)cc1: 78
CCCCCCCCc1ccc(-c2ccc(C(=O)O)c(F)c2)cc1: 114
CCCCCCCCc1ccc(-c2ccc(C(=O)O)cc2F)cc1: 85
CCCCOCCOc1ccc(-c2ccc(C(=O)O)c(F)c2)cc1: 108
CCCCCCCc1cnc(-c2ccc(C(=O)O)cc2)nc1: 93
CCCCCCCCOc1ccc(-c2ccc(C(=O)O)cc2)cc1: 70
CC(C)CCCCOc1ccc(-c2ccc(C(=O)O)cc2)cc1: 75
CCCCCCNC(=O)COc1nc(-c2ccc(C(=O)O)cc2)sc1C: 85
